- system: recombinant human SAE enzyme (Homo sapiens)
- Sequence (Q9UBT2 whole entry): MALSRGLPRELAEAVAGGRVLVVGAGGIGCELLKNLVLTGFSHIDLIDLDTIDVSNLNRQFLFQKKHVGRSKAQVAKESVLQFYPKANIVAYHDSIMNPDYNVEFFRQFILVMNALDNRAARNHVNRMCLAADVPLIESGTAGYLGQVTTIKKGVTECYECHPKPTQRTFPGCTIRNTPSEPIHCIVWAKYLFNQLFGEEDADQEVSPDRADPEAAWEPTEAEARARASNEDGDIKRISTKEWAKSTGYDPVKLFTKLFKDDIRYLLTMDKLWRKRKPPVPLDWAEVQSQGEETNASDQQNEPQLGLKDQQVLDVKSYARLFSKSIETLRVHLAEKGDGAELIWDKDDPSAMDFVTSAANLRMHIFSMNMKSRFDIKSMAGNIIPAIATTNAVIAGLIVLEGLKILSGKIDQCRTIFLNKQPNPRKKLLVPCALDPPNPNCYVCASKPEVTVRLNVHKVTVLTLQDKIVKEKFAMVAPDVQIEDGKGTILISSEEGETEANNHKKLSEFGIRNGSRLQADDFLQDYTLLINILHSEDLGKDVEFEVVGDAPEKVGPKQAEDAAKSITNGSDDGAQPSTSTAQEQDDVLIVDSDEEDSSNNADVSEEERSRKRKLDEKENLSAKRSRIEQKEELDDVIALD
- Sequence (Q9UBE0 whole entry partner): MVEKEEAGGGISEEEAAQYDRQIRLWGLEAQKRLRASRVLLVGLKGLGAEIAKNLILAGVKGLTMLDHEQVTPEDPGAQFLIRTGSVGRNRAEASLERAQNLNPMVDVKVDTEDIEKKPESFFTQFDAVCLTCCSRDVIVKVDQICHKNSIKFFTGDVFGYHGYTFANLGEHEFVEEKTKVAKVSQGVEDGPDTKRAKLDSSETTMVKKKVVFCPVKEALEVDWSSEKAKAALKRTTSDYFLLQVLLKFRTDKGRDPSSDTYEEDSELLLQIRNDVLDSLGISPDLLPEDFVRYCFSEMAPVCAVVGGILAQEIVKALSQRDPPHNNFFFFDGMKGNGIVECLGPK
- experiment: SAE HTRF Enzyme Assay
- Type: biochemical
- test.context: compound concentration 0.111 μM; read-out: Percent Inhibition
Attribute: inhibition at 0.111 µM
Number only, in %; omit the unit.

Please review the entries below; each comes with its answer.
- C=CS(=O)(=O)c1cccc(Cn2ccc(C(=O)c3cncnc3N[C@@H]3C[C@H](COS(N)(=O)=O)[C@@H](O)[C@H]3O)n2)c1: 89
- NS(=O)(=O)OC[C@H]1C[C@@H](Nc2ncncc2C(=O)c2ccn(Cc3ccc4ccccc4c3)n2)[C@H](O)[C@@H]1O: 97
- Cc1cc(C(=O)c2cncnc2N[C@@H]2C[C@H](COS(N)(=O)=O)[C@@H](O)C2)nn1Cc1ccccc1: 98
- CC(c1ccc(Cl)o1)n1ccc(C(=O)c2cncnc2N[C@@H]2C[C@H](COS(N)(=O)=O)[C@@H](O)[C@@H]2F)c1 (single isomer, unassigned): 96

Reported inhibition at 0.111 µM, compound NS(=O)(=O)OC[C@H]1C[C@@H](Nc2ncncc2C(=O)c2ccn(CC3CCOCC3)c2)[C@@H](F)[C@@H]1O : ____
63

So what does the record say about inhibition at 0.111 µM for NS(=O)(=O)OC[C@H]1C[C@@H](Nc2ncncc2C(=O)c2ccn(Cc3ccc(Cl)c(OC(F)(F)F)c3)n2)[C@H](O)[C@@H]1O ?
98

Data origin: patent US9695154B2
